IC50 values by entry
system-tested: SIK2 (Homo sapiens, UniProt Q9H0K1)
Construct: made in house
Sequence (Q9H0K1 whole entry): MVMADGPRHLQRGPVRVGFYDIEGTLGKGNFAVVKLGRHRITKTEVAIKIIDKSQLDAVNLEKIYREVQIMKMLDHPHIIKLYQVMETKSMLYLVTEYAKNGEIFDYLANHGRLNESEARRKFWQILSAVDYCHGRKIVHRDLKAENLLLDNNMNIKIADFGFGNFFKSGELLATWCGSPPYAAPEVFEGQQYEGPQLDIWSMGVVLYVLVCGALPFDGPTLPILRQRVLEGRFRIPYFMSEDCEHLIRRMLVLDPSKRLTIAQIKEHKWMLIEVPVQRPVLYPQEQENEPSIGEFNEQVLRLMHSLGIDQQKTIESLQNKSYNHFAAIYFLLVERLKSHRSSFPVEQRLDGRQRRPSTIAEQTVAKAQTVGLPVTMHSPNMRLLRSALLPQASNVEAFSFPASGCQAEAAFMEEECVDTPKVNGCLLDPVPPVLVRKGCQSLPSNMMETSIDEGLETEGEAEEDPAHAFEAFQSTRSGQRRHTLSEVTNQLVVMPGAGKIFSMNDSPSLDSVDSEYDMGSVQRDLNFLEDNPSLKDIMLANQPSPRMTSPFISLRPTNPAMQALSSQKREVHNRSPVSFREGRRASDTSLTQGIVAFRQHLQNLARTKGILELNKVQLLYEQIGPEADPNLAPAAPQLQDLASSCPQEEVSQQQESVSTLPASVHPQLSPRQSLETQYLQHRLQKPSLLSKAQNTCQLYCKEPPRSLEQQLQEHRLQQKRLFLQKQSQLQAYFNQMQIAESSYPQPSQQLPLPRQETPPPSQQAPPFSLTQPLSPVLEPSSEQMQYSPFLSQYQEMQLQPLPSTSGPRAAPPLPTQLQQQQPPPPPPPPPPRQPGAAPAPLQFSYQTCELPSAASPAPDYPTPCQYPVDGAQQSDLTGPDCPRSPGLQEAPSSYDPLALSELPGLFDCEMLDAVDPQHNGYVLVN
assay-info: Protein kinase assay ([γ-32P] ATP, phosphocellulose paper) against SIK2
Assay type: biochemical
condition-summary: read-out: Enzyme Inhibition IC50 SIK2

- smiles-text: "CCN1CCN(CCOc2ccc3cc2COC/C=C/CN(C(=O)Oc2c(C)cccc2C)c2ccnc(n2)N3)CC1"
  units-of-measure: "nM"
  IC50: 87.8
- smiles-text: "CCN1CCN(c2ccc(Nc3cc(-n4ccnc4Nc4c(C)cccc4C)ncn3)cc2)CC1"
  units-of-measure: "nM"
  IC50: 65.1
- smiles-text: "Cc1cccc(C)c1OC(=O)N1C/C=C/COCc2cc(ccc2OCCN2CCC(O)CC2)Nc2nccc1n2"
  units-of-measure: "nM"
  IC50: 93.8
- smiles-text: "Cc1cccc(C)c1OC(=O)N1C/C=C\\COCc2cc(ccc2OCCN2CCC(O)CC2)Nc2nccc1n2"
  units-of-measure: "nM"
  IC50: 12
